- Assay summary: small molecules captured by biotinylated probe aFGF10 – biochemical, small-molecule microarray, fluorescence 635/667, stem cell growth factor project, primary screen (AID 1071);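 also: score merges 667 nm spot intensity and signal to noise from triplicate slides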
- Condition info: higher = more signal
Answer Not met if composite z-score is under 0.2, and Met if it is 0.2 or more.

{"Compound": "O=C1C2C=CC(C(O)CCc3ccccc3)N(Nc3ccccc3)C2C(=O)N1c1ccccc1 (stereo not drawn)", "Class assignment": "Met"}
{"Compound": "COc1ccc([Si](C)(C)[C@H]2[C@H](CCO)O[C@@]3(C(=O)N(Cc4ccccc4)c4ccc(N5C(=O)COc6ccccc65)cc43)[C@@H]2C)cc1", "Class assignment": "Met"}
{"Compound": "CCCC[C@@H]1C[C@H]1[C@@H](NC(=O)c1ccco1)c1ccccc1", "Class assignment": "Not met"}
{"Compound": "COCCOC(=O)N1C(=O)[C@@]2(c3cc(C#Cc4ccc(OC)cc4)ccc31)[C@H](c1ccc(OCCO)cc1)N1[C@H](c3ccccc3)[C@H](c3ccccc3)OC(=O)[C@H]1[C@@H]2C(=O)N1CCc2cc(OC)c(OC)cc2C1", "Class assignment": "Met"}
{"Compound": "CC(C)C(O)C1C=CC2C(=O)N(C)C(=O)C2N1N1CCCCC1 (stereo not drawn)", "Class assignment": "Met"}
{"Compound": "COC(=O)[C@@]1(Cc2ccc(OC)cc2)[C@H]2c3cc(C(=O)N4CCCC4)n(CCc4ccccn4)c3C[C@H]2CN1C(=O)c1ccccc1", "Class assignment": "Met"}
{"Compound": "Cc1ccccc1/C=C/C=O", "Class assignment": "Not met"}
{"Compound": "CN1C(=O)C2C=CC(C(O)c3ccccc3)N(NC(=O)OC(C)(C)C)C2C1=O (stereo not drawn)", "Class assignment": "Met"}

---

Quick reference for z-score among some molecules
- Assay summary: hepatitis C replication reporter changes, two-sided – Huh7 cells, luciferase reporter, HCV replication inhibitor project, primary screen (AID 1109);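 also: huh7 hepatoma cells harbouring a luciferase neomycin HCV replicon reporter; luciferase luminescence as measure of HCV replicon replication; test concentration not given here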
- Condition info: Huh7 HCV replicon luciferase reporter, 48 h; higher = more signal

{"Molecule": "Cc1ccc(S[C@]2(C(=O)NCC(C)C)CC(=O)N(Cc3ccccc3)[C@@H]2c2ccc(CO)cc2)cc1", "z-score": -1.99}
{"Molecule": "C[N+](C)(C)CCCC[C@@H]1NC(=O)[C@H]2C[C@@H](C(=O)O)[C@@H](c3cccc(OCCO)c3)N2C1=O", "z-score": -0.774}
{"Molecule": "[N-]=[N+]=NCc1ccccc1[C@H]1OC(c2ccc(OCCCO)cc2)=N[C@@]1(Cc1ccccc1)C(=O)NCC(O)CO (stereo not given in full)", "z-score": -1.38}
{"Molecule": "COCC1C2CC[C@H]3C(OCc4ccc(F)cc4C(F)(F)F)OC[C@]4(C)[C@H]3C2=C(CN4C(=O)OC(C)(C)C)[C@H](C)C1COC (stereo not given in full)", "z-score": -0.386}
{"Molecule": "C=C(COC)C(=O)CC[C@H](OC(=O)c1cccnc1)c1ccccc1OCCO", "z-score": -3.13}
{"Molecule": "COCCOC(=O)N1C(=O)[C@@]2(c3ccccc31)[C@H](c1ccc(O)cc1)N1[C@H](c3ccccc3)[C@H](c3ccccc3)OC(=O)[C@H]1[C@@H]2C(N)=O", "z-score": -0.823}
{"Molecule": "CCCNC(=O)[C@@]1(c2ccc([N+](=O)[O-])cc2)CC(=O)N(CC23CC4CC(CC(C4)C2)C3)[C@@H]1c1ccc(CO)cc1I", "z-score": -3.32}
{"Molecule": "CC(C)(C)OC(=O)CC[C@@]1(C(N)=O)N=C(c2ccc(OCCCO)cc2)O[C@@H]1c1ccccc1N=[N+]=[N-]", "z-score": 3.02}
{"Molecule": "COC(=O)[C@@]1(Cc2ccc(F)cc2)[C@H]2c3cc(C(=O)N(C)C)n(Cc4ccccn4)c3C[C@H]2CN1C(=O)c1ccccc1", "z-score": -1.39}
{"Molecule": "CC(c1ccccc1)C(O)C1C=CC2C(=O)N(c3ccccc3)C(=O)C2N1Nc1ccccc1F (stereo not given)", "z-score": -1.55}
{"Molecule": "O=C1C2C=CC(C(O)C3CC=CCC3)N(n3cnnc3)C2C(=O)N1Cc1ccccc1 (stereo not given)", "z-score": -0.151}
{"Molecule": "CCCNC(=O)[C@@]1(C)c2ccccc2C(=O)N(C(C)C)[C@H]1c1ccc(CO)cc1", "z-score": -1.99}
{"Molecule": "O=c1cccc(-c2ccc3ccccc3c2)o1", "z-score": 0.0929}
{"Molecule": "CCCC[C@@H]1C[C@H]1[C@@H](NC(=O)c1ccccc1)c1ccccc1", "z-score": -0.978}
{"Molecule": "COCCCNC(=O)[C@@]1(Sc2ccc(C)cc2)CC(=O)N(Cc2ccccc2)[C@@H]1c1ccc(CO)cc1", "z-score": -1.29}
{"Molecule": "COc1cc2c(cc1O)C(c1ccc(CN3CCCC3)cc1)N(Cc1sc3ccccc3c1Cl)CC2 (stereo not given)", "z-score": -2.57}
{"Molecule": "COCCn1c(C(=O)N2CCCC2)cc2c1C[C@H]1CN(C(=O)c3ccccc3)[C@@](Cc3ccc(OC)cc3)(C(=O)OC)[C@@H]21", "z-score": -1.62}
{"Molecule": "O=C1C[C@@](C(=O)O)(c2ccc([N+](=O)[O-])cc2)[C@@H](c2ccc(CO)cc2I)N1CC12CC3CC(CC(C3)C1)C2", "z-score": -3.31}
{"Molecule": "COCCOC(=O)N1C(=O)[C@@]2(c3cc(C#CC4=CCCCC4)ccc31)[C@H](c1ccc(OCCO)cc1)N1[C@H](c3ccccc3)[C@H](c3ccccc3)OC(=O)[C@H]1[C@@H]2C(=O)Nc1nc2ccccc2s1", "z-score": -1.87}
{"Molecule": "CCCCCCCCCCC(O)C1C=CC2C(=O)N(c3ccccc3)C(=O)C2N1Nc1ccc([N+](=O)[O-])cc1 (stereo not given)", "z-score": -2.47}
{"Molecule": "C=CCOC(=O)[C@H]1[C@@H]2C(=O)O[C@@H](c3ccccc3)[C@@H](c3ccccc3)N2[C@@H](c2ccc(OCCOC(=O)[C@@H]3C[C@@H]4C(=O)NCC(=O)N4[C@@H]3c3ccc(O)cc3)cc2)[C@]12C(=O)Nc1ccc(I)cc12", "z-score": -1.59}
{"Molecule": "COCCOC(=O)N1C(=O)[C@@]2(c3cc(C#CCCO)ccc31)[C@H](C(=O)NC[C@H](O)c1ccccc1)[C@H]1C(=O)O[C@H](c3ccccc3)[C@H](c3ccccc3)N1[C@@H]2c1ccc(OCCO)cc1", "z-score": -0.646}
{"Molecule": "COc1ccc([Si](C)(C)[C@H]2[C@H](CC(=O)N3CCC[C@H]3CO)O[C@@]3(C(=O)N(c4ccccc4)c4ccccc43)[C@@H]2C)cc1", "z-score": -1.12}
{"Molecule": "COCCOC(=O)N1C(=O)[C@@]2(c3cc(C#CC4(O)CCCCCC4)ccc31)[C@H](c1ccc(O)cc1)N1[C@H](c3ccccc3)[C@H](c3ccccc3)OC(=O)[C@H]1[C@@H]2C(=O)N1CCc2cc(OC)c(OC)cc2C1", "z-score": -0.302}
{"Molecule": "O=c1cccc(-c2cccc3ccccc23)o1", "z-score": -0.497}
{"Molecule": "COC(=O)c1c2oc(c1C(=O)OC)C(=O)N[C@H](Cc1ccccc1)Cn1nncc1C1(CCCCC1)NC(=O)N[C@H](CO)CC2", "z-score": -0.398}
{"Molecule": "Cc1ccc(S(=O)(=O)N2CC(C(=O)O)=CCC2c2ccccc2)cc1 (stereo not given)", "z-score": -0.212}
{"Molecule": "COc1ccc(C(=O)Nc2cccc(CN3C(=O)[C@@]4(O[C@@H](CC(=O)N5Cc6ccccc6C[C@H]5CO)[C@H]([Si](C)(C)c5ccc(OC)cc5)[C@H]4C)c4ccccc43)c2)cc1", "z-score": -3.74}
{"Molecule": "C=C(CCCC)C(=O)CC[C@H](OC(C)=O)c1ccc(CO)o1", "z-score": -0.72}
{"Molecule": "[N-]=[N+]=Nc1ccccc1[C@@H]1OC(c2ccc(OCCCO)cc2)=N[C@]1(CCS(=O)(=O)c1ccccc1)C(=O)O", "z-score": 0.666}
